Test system: T1, monkey CD22 protein (ACROBiosystems, catalog number SI2-R52Ha) (monkey, UniProt F6W485 20-688)
T1 construct: commercial protein; also called monkey CD22-ECD; monkey CD22-ECD-His
T1 sequence: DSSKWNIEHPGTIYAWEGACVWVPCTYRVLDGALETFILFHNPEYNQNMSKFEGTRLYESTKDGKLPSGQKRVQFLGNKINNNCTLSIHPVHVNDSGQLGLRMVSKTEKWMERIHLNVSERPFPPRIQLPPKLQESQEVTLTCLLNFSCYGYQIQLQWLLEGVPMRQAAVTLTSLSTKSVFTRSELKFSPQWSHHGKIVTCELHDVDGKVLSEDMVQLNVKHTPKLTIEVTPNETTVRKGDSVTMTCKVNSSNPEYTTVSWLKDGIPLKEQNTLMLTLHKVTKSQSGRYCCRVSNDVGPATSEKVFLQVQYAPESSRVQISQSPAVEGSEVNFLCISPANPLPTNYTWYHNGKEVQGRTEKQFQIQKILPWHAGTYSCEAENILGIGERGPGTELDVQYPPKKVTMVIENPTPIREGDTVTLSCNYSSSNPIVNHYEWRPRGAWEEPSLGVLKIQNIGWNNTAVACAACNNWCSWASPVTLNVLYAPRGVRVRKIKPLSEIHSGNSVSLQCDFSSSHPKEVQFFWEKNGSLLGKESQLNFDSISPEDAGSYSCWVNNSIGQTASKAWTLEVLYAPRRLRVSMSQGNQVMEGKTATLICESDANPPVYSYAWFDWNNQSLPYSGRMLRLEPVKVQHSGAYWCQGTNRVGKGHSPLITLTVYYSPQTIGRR
Test: ELISA, coated monkey CD22 protein, antibody 0.01 nM
Description: In order to detect the binding activity of CD22 human-murine chimeric antibodies to CD22 protein, the purified human CD22-ECD-His protein obtained in Example 2 was diluted with PBS to a final concentration of 2 μg/mL, and then added to 96-well ELISA plate at 100 μl/well. The plate was sealed with plastic film and incubated overnight at 4° C., the plate was washed 2 times with PBS the next day, and then a blocking solution [PBS+2% (w/w) BSA] was added for blocking at room temperature for 2 hours. […]
Test readout: OD450 (OD450)
Field format: number, assumed OD450, no unit text.

F1.105.11 (antibody, human IgG1, kappa, V domains shown, human-murine chimeric IgG1 kappa; VL name legible) VH: EVQLQQSGPVLVKPGASVKMSCKASGYTFSDYFMNWVKQSHGKSLEWIGIINSYSGGTSYNQKFKGKATLTVDKSSSTAYMELNSLTSEDSAVYYCARWMDYWGQGTSVTVSS VL: DVQITQSPSYLAASPGETITINCRTSESISKHLAWYQEKPGKTNKLLIYSGSTLQSGIPSRFSGSGSGTDFTLTISSLEPEDFAMYYCQQHNEYPWTFGGGTKLEIKR    0.68
F1.172.13 (antibody, human IgG1, kappa, V domains shown, human-murine chimeric IgG1 kappa) VH: QVTLKESGPGILQSSQTLSLTCSFSGFSLSTSGMGVSWIRQPSGKGLEWLAHIYWDDDKRYNPSLKSRLTISKDTSRNQVFLKITSVDTADTATYYCARAPPPNWDEYYFDYWGQGTTLTVSS VL: DIQMTQSPASLSASVGETVTITCRASGNIHNSLAWYQQKQGKSPQLLVHNAKTLADGVPSRFSGSGSGTQYSLKINSLQPEDFGSYYCQHFWSTPPFGGGTKLEIKR    2.47
F1.7.6 (antibody, human IgG1, kappa, V domains shown, human-murine chimeric IgG1 kappa; VL name legible) VH: EIQLQQSGPELVKPGTSVKVSCKASGYDFTRYNMYWVKQSHGKSLEWIGYIDPYNGDTRYNQKFKGKATLTVDKSSSTAYMHLNSLTSEDSAVYYCEAIYYDMEGYALDYWGQGTSVTVSS VL: DIVMSQSPSSLAVSVGEKVTMSCKSSQSLLYSNNQKNYLAWYQQKPGQSPKKLIYWASTRESGVPDRLTGSGSGTDFTLTISSVTAEDLAVYYCQQFYSYPWTFGGGTKLEIKR    0.06

Now consider the entry below.
Query: Which OD450 reading was recorded for the binder F1.250.16 (antibody, human IgG1, kappa, V domains shown, human-murine chimeric IgG1 kappa; VL name legible) VH: QVQLQQSGAEQVKPGASVKMSCKASGYTFTTYPIEWMKQNHGESLDWIGNIHPYNDDTEYNEKFKGKATLTVEKSSNTVFLELSRLTSDDSAVYYCVRGDYYNSRYWYFDVWGTGTTVTVSS VL: DIVMTQSQKFMSTTVGDRVSITCKAGQNVRTAVAWYQQKPGQSPKLLIYSASTRYIGVPERFTGSGSGTDFTLTITNMQSEDLADYFCQQYSSFPLTFGTGTKLELKR ?
Response: 2.62

meta.source: patent US20240084003A1
